Listed next: entries and their corresponding Kd.
Target: T1, GFP-9S library array, motif 4 ND N98C;D124A (synthetic construct, N98C;D124A)
T1 chain: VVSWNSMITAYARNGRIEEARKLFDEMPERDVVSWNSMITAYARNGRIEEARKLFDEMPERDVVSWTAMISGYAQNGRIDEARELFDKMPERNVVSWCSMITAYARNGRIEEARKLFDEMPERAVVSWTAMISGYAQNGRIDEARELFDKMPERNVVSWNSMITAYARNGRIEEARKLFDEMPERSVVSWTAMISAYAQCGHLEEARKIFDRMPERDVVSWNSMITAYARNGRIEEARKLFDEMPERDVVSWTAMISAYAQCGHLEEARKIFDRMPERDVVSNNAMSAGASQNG
Test: high-throughput RNA pulldown from lysate on Ni-NTA beads; HRP: 50 mM Tris pH 8, 150 mM NaCl, 1 mM beta-mercaptoethanol, 50 ug/ml BSA, 3 ug/ml yeast RNA, 0.5% heparin; ITC and FP: Tris pH 8, 200 mM KCl, 5% glycerol; MST: 50 mM Tris pH 8, 200 mM NaCl, 1 mM DTT, BSA, heparin, 0.05% Tween 20
Conditions: tags: N-terminal His-eGFP; label: 5' Cy5
Outcome Measure: Kd (nM)

1) AUUACACGUGA (ssRNA) [Cy5-rpoA] ... 114
2) AUUAGACGUGA (ssRNA) [Cy5-rpoA-G] ... 92.3
